System: Dengue virus
Assay comment: Inhibition of Dengue virus NS2B-NS3 serine protease expressed in Escherichia coli BL 21 (DE3) at 50 uM preincubated for 15 mins before substrate addition measured after 15 mins by fluorimetric analysis
Experimental readout: inhibition (%)

Worked examples follow.
>  <Molecule>
CC(C)(C)NC(=O)C(=O)c1ccccc1

>  <Target system>
Dengue virus

>  <inhibition, %>
6.9

$$$$
>  <Molecule>
CC(C)(C)NC(=O)C(=O)C1CCCCC1

>  <Target system>
Dengue virus

>  <inhibition, %>
21.5

$$$$
>  <Molecule>
CC(C)(C)NC(=O)C(=O)/C=C/c1ccc2ccccc2c1

>  <Target system>
Dengue virus

>  <inhibition, %>
8.9

$$$$
>  <Molecule>
CC(C)(C)NC(=O)C(=O)/C=C/c1cccc([N+](=O)[O-])c1

>  <Target system>
Dengue virus

>  <inhibition, %>
9.6

$$$$
>  <Molecule>
CC(C)(C)NC(=O)C(=O)/C=C/c1ccc(N)cc1

>  <Target system>
Dengue virus

>  <inhibition, %>
40.6

$$$$

P = COC(=O)[C@H](CO)NC(=O)C(=O)/C=C/c1ccccc1
Q = CC(C)(C)NC(=O)C(=O)/C=C/c1cccnc1
R = CC(C)(C)NC(=O)C(=O)CCc1ccccc1
S = CC(C)(C)NC(=O)C(=O)/C=C/c1ccc([N+](=O)[O-])cc1
Q: Sort these molecules on inhibition so the largest reading comes first. Please list the labels according to the requested order.
Ans: P, Q, S, R
